Biological target: CYP2C19 (Homo sapiens, UniProt P33261)
Construct: Human liver microsomes; from tissue; host or cells: human liver microsomes
Sequence (P33261 whole entry): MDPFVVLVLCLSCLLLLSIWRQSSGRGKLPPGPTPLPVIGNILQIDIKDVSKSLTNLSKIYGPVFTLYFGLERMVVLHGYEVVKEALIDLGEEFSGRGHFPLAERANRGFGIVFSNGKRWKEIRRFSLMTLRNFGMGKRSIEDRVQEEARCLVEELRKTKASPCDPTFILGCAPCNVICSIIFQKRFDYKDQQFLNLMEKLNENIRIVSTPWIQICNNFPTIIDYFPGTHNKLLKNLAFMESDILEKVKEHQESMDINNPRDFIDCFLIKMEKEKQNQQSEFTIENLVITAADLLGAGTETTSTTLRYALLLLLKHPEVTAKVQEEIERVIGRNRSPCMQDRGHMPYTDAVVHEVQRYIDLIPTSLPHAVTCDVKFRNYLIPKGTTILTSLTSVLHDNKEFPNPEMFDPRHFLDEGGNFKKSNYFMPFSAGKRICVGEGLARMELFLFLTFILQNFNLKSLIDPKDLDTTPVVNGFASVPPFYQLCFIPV
Assay: Cytochrome P450 Inhibition (CYP panel)
Format: in vitro ADME
Conditions: human liver microsomes, probe omeprazole, CYP2C19 (omeprazole sub.), Human liver microsomes, 1 μM, read-out: % Inhibition of Control Values
This listing pairs compounds with measured inhibition at 1 µM.
ASSAY_ENDPOINT: inhibition at 1 µM

>>> df
                                   compound  observed_value
0  CC(C)=CCC[C@H](CO)[C@@H]1CC[C@@H](C)c2c1cc(C)c(O)c2O [Compound 1, 7,8,18-trihydroxyserrulat-14-ene]             37%
1  CC(C)=CCC[C@H](C)[C@@H]1CC[C@@H](C)c2c1cc(C)c(O)c2O [Compound 4, 7,8-dihydroxyserrulat-14-ene]             25%
2  CC(C)=CCC[C@@H]1C(O)Oc2c(C)cc(O)c3c2[C@H]1CC[C@H]3C (stereo partly drawn)             34%
